The measured values listed here are drawn from patent US9567302B2.

Would you kindly list IC50 for each of these molecules?
Target: ABHD6 (Mus musculus)
Sequence (Q8R2Y0 1-336): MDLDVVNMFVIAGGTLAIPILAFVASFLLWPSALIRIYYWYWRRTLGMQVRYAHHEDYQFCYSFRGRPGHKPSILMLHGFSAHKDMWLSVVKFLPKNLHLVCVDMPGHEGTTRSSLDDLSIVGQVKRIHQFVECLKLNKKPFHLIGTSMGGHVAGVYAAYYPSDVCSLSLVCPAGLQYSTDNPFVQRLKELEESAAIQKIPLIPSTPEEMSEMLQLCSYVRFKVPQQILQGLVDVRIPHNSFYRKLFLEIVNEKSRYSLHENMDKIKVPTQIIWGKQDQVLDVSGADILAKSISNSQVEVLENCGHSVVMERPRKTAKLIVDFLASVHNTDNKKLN
Assay: In vitro competitive activity-based protein profiling (FP-Rh), mouse ABHD6
Type: biochemical
Set-up: from tissue; host or cells: mouse brain membrane fraction
Conditions: Table 1, mouse proteome, 30 min preincubation at 37° C.

[
  {
    "MOLECULE": "O=C(ON1C(=O)c2ccccc2C1=O)N1CCC(CCc2ccc(Cl)cc2)CC1",
    "REPORTED_METRIC": "IC50",
    "MEASURED": "< 100 nM"
  }
]

Give IC50 for each of the items listed below.
1. O=C1CCC(=O)N1OC(=O)N1CCCCC1CO (centres unmarked)
2. O=C(ON1C(=O)CCC1=O)N1CCC(Cc2ccccc2)CC1

Completion:
1: > 10000 nM; 2: 100 to 1000 nM
